Records here are stratified by log10 Koa; strata: bucket A = under 5, bucket B = from 5 up to 8, bucket C = 8 and over

Solved cases (5 shown):
Clc1cccc2ccccc12 = bucket B
c1ccc(-c2ccccc2)cc1 = bucket B
CCCCCOCCCCC = bucket A
Clc1cc2oc3c(Cl)c(Cl)c(Cl)c(Cl)c3c2cc1Cl = bucket C
CN(C)C=O = bucket A

*Q* For "CC(=O)C(C)C" , which log10 Koa bin applies?
*A* bucket A

*Q* GET /class?item= "C(=C\c1ccccc1)/c1ccccc1"
*A* bucket B

*Q* # bin lookup: classify "Clc1cccc(Cl)c1" by its log10 Koa
*A* bucket A

----------
Response field label: string, one of fulfilled (boiling point strictly below 200 °C) or not fulfilled.

# count of solved cases: 5
COC(=O)c1ccc(O)c(OC)c1 = not fulfilled
CCCCC(CC)C(=O)O (stereo unspecified) = not fulfilled
C1=CCC2CC2C1 (stereo unspecified) = fulfilled
CC(=O)C(c1ccccc1)c1ccccc1 = not fulfilled
CCOC(=O)c1ccc(C)cc1 = not fulfilled

Turning to the following compound.
*Q* For "C/C=C(\C)C(=O)OCC" , is the recorded boiling point below the cut-off of 200 °C?
*A* fulfilled

----------
Flag rule - boiling point less than 200 °C flags criterion met; the remaining entries get criterion not met.

Some solved cases for reference:
CCCS(=O)(=O)CCC = criterion not met
CCCCOCOCCCC = criterion met
CCCC(=O)C(C)C = criterion met
C=COCC(C)C = criterion met
CC(O)C#N (stereo unspecified) = criterion met

*Q* Lab note: confirm whether the reported boiling point for this compound is below 200 °C, equality not counting. compound: "CCCCCCCCNCCCCCCCC"
*A* criterion not met

*Q* State whether 200 °C exceeds boiling point recorded for "COOC" .
*A* criterion met

*Q* Does the reported boiling point of the following compound sit strictly below 200 °C? "COc1ccc(C(C)=O)cc1OC"
*A* criterion not met

*Q* Threshold test, boiling point < 200 °C: "CCCCCCCCOC(=O)CCCCCCC"
*A* criterion not met

*Q* Just wondering, is boiling point of "c1c[nH]cn1" below 200 °C?
*A* criterion not met

*Q* Does this compound meet the criterion boiling point < 200 °C? "C=CC(=O)Cl"
*A* criterion met

*Q* Answer whether the compound "CCCCC(=O)CCC" has boiling point strictly less than 200 °C
*A* criterion met

----------
The following molecules are listed with their measured boiling point values.

Fc1ccc2ccccc2c1 = 212 °C

*Q* What boiling point value was documented for this molecule, "C=CCOC(=O)CCC" ?
*A* 142 °C

*Q* Fill in: boiling point of "CCOC(F)(F)C(F)F" is ___
*A* 57.5 °C

*Q* Data request, read-out boiling point, for "C1=CCNC1"
*A* 90.5 °C

*Q* What value of boiling point has been recorded for this entry: FC1(F)C(F)(F)C(F)(F)C2(F)C(F)(C1(F)F)C(F)(F)C(F)(F)C1(F)C(F)(F)C(F)(F)C(F)(F)C(F)(F)C12F (stereo not drawn)
*A* 210 °C

*Q* Param item = "C=CSC=C" ; retrieve measured boiling point.
*A* 84 °C

*Q* What boiling point value was documented for this molecule, "ClC(Cl)C(Cl)Cl" ?
*A* 146 °C

*Q* What does the data say about its boiling point? Entry: "CC(Cl)(Cl)Cl"
*A* 74 °C
